These data points were gathered from patent US20120178766A1.

target: human TRPA1 (Homo sapiens, UniProt O75762); construct: expressed in transfected cells; host or cells: CHO cells (G-418 selection); assay: 45Calcium uptake assay: inhibition of AITC induced cellular uptake of radioactive calcium, human TRPA1 expressing CHO cells; type: cell-based; conditions: 1.0 μM compound, AITC 30 μM, read-out: human TRPA1 Percentage inhibition at 1.0 μM
Sequence (O75762 whole entry): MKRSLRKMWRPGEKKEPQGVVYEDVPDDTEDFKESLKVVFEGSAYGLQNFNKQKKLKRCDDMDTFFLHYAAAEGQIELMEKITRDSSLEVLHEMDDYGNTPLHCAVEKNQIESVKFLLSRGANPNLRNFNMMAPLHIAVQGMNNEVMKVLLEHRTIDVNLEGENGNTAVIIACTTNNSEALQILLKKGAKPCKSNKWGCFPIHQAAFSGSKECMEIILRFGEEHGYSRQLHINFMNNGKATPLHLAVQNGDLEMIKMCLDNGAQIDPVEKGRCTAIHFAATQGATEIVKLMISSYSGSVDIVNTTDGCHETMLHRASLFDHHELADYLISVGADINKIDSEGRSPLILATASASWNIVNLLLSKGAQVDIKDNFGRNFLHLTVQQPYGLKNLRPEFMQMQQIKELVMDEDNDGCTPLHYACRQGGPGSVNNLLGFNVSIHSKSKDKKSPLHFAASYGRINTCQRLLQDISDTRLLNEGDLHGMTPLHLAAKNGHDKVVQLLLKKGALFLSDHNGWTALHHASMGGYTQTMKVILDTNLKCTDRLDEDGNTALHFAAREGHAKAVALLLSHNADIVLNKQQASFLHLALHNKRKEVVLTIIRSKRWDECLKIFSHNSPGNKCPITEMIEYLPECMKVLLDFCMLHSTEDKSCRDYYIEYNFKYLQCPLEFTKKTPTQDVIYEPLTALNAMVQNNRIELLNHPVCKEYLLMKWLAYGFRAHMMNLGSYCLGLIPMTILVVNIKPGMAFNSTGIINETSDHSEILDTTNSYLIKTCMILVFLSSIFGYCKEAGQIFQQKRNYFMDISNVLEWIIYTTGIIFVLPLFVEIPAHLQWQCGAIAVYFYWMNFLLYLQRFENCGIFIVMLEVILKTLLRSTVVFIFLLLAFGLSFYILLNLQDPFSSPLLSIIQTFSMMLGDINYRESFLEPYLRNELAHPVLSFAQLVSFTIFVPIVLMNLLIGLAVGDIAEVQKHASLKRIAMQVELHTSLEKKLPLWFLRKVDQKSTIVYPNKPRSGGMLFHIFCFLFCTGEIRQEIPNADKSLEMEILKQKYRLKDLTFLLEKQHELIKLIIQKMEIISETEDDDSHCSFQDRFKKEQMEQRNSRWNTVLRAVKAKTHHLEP
MEASURE NAME: inhibition at 1 µM (%)

Tell me the measured inhibition at 1 µM of Cn1c(=O)c2c(CC(=O)Nc3nc(-c4cc(Cl)c(OCC(F)(F)F)c(Cl)c4)cs3)coc2n(C)c1=O [Example 47] , please.
99.2

Could you do the same for Cn1c(=O)c2c(CC(=O)Nc3nc(-c4ccc(F)c(C(F)(F)F)c4F)cs3)coc2n(C)c1=O [Example 35] , please?
99.8

Please do the same for Cn1c(=O)c2c(CC(=O)Nc3nc(-c4ccc(OCC(C)(C)C)c(F)c4)cs3)coc2n(C)c1=O [Example 26] as well.
97.6

----------
biological target: rat TRPA1 (Rattus norvegicus); construct: expressed in transfected cells; host or cells: CHO cells (Zeocin selection); assay: 45Calcium uptake assay: inhibition of AITC induced cellular uptake of radioactive calcium, rat TRPA1 expressing CHO cells; format: cell-based; conditions: 10.0 μM compound, AITC 10 μM, read-out: rat TRPA1 Percentage inhibition at 10.0 μM
MEASURE NAME: inhibition at 10 µM (%)

inhibition at 10 µM for "Cc1oc2c(c1CC(=O)Nc1nc(-c3cc(F)c(OCC4CC4)c(F)c3)cs1)c(=O)n(C)c(=O)n2C" ?
98.8

Next up: "Cc1oc2c(c1CC(=O)Nc1nc(-c3cccc(Cl)c3Cl)cs1)c(=O)n(C)c(=O)n2C"
100

What do we get for "Cn1c(=O)c2c(CC(=O)Nc3nc(-c4ccc(OC(F)F)c(Cl)c4)cs3)coc2n(C)c1=O" ?
99.6

// same read-out, input: "Cc1oc2c(c1CC(=O)Nc1nc(-c3ccc(F)c(F)c3F)cs1)c(=O)n(C)c(=O)n2C"
98.5

Would you kindly repeat that for "Cn1c(=O)c2c(CC(=O)Nc3nc(-c4ccc(OCC(F)(F)F)c(Cl)c4)cs3)coc2n(C)c1=O" ?
100

Same question for "Cn1c(=O)c2c(CC(=O)Nc3nc(-c4ccc(Cl)c(OC(F)(F)F)c4)cs3)coc2n(C)c1=O" please.
98.2

# iterate: "Cn1c(=O)c2c(CC(=O)Nc3nc(-c4ccc(OCC(F)(F)F)c(F)c4)cs3)coc2n(C)c1=O"
100

Would you mind doing "Cn1c(=O)c2c(CC(=O)Nc3nc(-c4cc(F)c(OCC(F)(F)F)c(F)c4)cs3)coc2n(C)c1=O" as well?
99.5

And "Cc1oc2c(c1CC(=O)Nc1nc(-c3ccc(OCC(F)(F)F)c(Cl)c3)cs1)c(=O)n(C)c(=O)n2C" ?
100

Then what about the compound "Cc1oc2c(c1CC(=O)Nc1nc(-c3ccc(OC(F)(F)F)cc3)cs1)c(=O)n(C)c(=O)n2C" ?
100

Now consider "Cc1oc2c(c1CC(=O)Nc1nc(-c3cc(Cl)c(OCC(F)(F)F)c(Cl)c3)cs1)c(=O)n(C)c(=O)n2C" and answer again.
100

Now try "Cn1c(=O)c2c(CC(=O)Nc3nc(-c4ccc(OCC(C)(C)C)c(Br)c4)cs3)coc2n(C)c1=O" .
100

What do we get for "Cn1c(=O)c2c(CC(=O)Nc3nc(-c4ccc(Cl)c(C(F)(F)F)c4)cs3)coc2n(C)c1=O" ?
94.1

Okay, and "Cc1oc2c(c1CC(=O)Nc1nc(-c3cc(F)c(OC(F)F)c(F)c3)cs1)c(=O)n(C)c(=O)n2C" ?
100

Now the same for "Cc1oc2c(c1CC(=O)Nc1nc(-c3ccc(C(F)(F)F)c(Cl)c3)cs1)c(=O)n(C)c(=O)n2C"
98.5

Try "Cn1c(=O)c2c(CC(=O)Nc3nc(-c4cc(F)c(OCC(C)(C)C)c(Cl)c4)cs3)coc2n(C)c1=O" next.
99.2

Also "Cc1oc2c(c1CC(=O)Nc1nc(-c3ccc(C(F)(F)F)cc3)cs1)c(=O)n(C)c(=O)n2C" ?
100

What would you report for "Cn1c(=O)c2c(CC(=O)Nc3nc(-c4ccc(OC(F)(F)F)cc4)cs3)coc2n(C)c1=O" ?
100

Another compound: "Cn1c(=O)c2c(CC(=O)Nc3nc(-c4ccc(F)c(C(F)(F)F)c4)cs3)coc2n(C)c1=O"
99

----------
target: rat TRPA1 (Rattus norvegicus, UniProt Q6RI86); construct: expressed in transfected cells; host or cells: CHO cells (Zeocin selection); experiment: 45Calcium uptake assay: inhibition of AITC induced cellular uptake of radioactive calcium, rat TRPA1 expressing CHO cells; type: cell-based; details: 10.0 μM compound, AITC 10 μM, read-out: rat TRPA1 Percentage inhibition at 10.0 μM
Sequence (Q6RI86 whole entry): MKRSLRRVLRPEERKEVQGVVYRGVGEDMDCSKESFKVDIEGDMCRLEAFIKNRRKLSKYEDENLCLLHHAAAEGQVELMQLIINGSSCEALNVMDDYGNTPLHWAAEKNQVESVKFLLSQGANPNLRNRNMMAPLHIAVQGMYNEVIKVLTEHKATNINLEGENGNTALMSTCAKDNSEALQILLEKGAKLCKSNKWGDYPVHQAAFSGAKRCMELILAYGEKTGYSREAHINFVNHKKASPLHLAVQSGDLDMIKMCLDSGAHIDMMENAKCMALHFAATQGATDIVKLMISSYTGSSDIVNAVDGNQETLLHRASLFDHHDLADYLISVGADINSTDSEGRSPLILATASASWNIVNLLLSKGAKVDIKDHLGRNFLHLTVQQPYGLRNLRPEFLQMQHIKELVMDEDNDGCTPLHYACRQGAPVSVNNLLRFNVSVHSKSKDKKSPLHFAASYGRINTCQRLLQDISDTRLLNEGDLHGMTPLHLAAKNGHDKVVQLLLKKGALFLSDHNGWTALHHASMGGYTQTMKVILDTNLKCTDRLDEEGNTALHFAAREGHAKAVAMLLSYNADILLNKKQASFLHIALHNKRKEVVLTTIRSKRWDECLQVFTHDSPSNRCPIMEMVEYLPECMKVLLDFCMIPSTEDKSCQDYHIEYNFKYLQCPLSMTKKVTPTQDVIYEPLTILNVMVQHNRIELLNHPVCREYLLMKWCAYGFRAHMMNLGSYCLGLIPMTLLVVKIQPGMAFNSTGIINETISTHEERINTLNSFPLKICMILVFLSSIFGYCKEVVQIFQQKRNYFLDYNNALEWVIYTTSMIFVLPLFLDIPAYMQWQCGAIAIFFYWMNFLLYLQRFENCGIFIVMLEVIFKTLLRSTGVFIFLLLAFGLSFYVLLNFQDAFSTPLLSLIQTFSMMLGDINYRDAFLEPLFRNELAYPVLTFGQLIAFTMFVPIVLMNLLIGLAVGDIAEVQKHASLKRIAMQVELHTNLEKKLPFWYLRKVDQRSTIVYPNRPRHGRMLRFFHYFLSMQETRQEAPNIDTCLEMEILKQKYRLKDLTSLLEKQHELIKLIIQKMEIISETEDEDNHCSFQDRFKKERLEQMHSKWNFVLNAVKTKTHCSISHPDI
MEASURE NAME: inhibition at 10 µM (%)

Using the record for "Cn1c(=O)c2c(CC(=O)Nc3nc(-c4cc(Cl)c(OC(F)F)c(Cl)c4)cs3)coc2n(C)c1=O" , report its inhibition at 10 µM.
100

# iterate: "Cn1c(=O)c2c(CC(=O)Nc3nc(-c4cc(F)c(C(F)(F)F)c(F)c4)cs3)coc2n(C)c1=O"
100

// same read-out, input: "Cn1c(=O)c2c(CC(=O)Nc3nc(-c4ccc(OCC(C)(C)C)c(Cl)c4)cs3)coc2n(C)c1=O"
100

Consider next the compound "Cn1c(=O)c2c(CC(=O)Nc3nc(-c4cc(F)cc(C(F)(F)F)c4)cs3)coc2n(C)c1=O" in the same way.
99.9

----------
biological target: human TRPA1 (Homo sapiens, UniProt O75762); construct: expressed in transfected cells; host or cells: CHO cells (G-418 selection); test: 45Calcium uptake assay: inhibition of AITC induced cellular uptake of radioactive calcium, human TRPA1 expressing CHO cells; type: cell-based; conditions: 1.0 μM compound, AITC 30 μM, read-out: human TRPA1 Percentage inhibition at 1.0 μM
MEASURE NAME: inhibition at 1 µM (%)

// below: answered compounds
Please state recorded inhibition at 1 µM (tested on human TRPA1 (Homo sapiens, UniProt O75762)) of Cn1c(=O)c2c(CC(=O)Nc3nc(-c4ccc(C(F)(F)F)cc4)cs3)coc2n(C)c1=O [Example 6]
100

Entry Cn1c(=O)c2c(CC(=O)Nc3nc(-c4cc(F)c(F)cc4F)cs3)coc2n(C)c1=O [Example 33] please
97.9

Repeat for the following compound: Cn1c(=O)c2c(CC(=O)Nc3nc(-c4cccc(C(F)(F)F)c4)cs3)coc2n(C)c1=O [Example 7]
98.8

What would you report for Cn1c(=O)c2c(CC(=O)Nc3nc(-c4cc(F)c(OCC(C)(C)C)c(Cl)c4)cs3)coc2n(C)c1=O [Example 44] ?
100

What would you report for Cn1c(=O)c2c(CC(=O)Nc3nc(-c4ccc(F)c(OC(F)(F)F)c4)cs3)coc2n(C)c1=O [Example 16] ?
98.5

P = Cn1c(=O)c2c(CC(=O)Nc3nc(-c4cc(F)c(C(F)(F)F)c(F)c4)cs3)coc2n(C)c1=O [Example 36]
Q = Cn1c(=O)c2c(CC(=O)NCCc3ccc(Cl)cc3Cl)coc2n(C)c1=O [Example 2]
Just curious, which one has the larger inhibition at 1 µM reading, P or Q ? Identify your selection by its label.
P

----------
target: rat TRPA1 (Rattus norvegicus, UniProt Q6RI86); construct: expressed in transfected cells; host or cells: CHO cells (Zeocin selection); experiment: 45Calcium uptake assay: inhibition of AITC induced cellular uptake of radioactive calcium, rat TRPA1 expressing CHO cells; type: cell-based; conditions: AITC 10 μM, read-out: rat TRPA1 Percentage inhibition
MEASURE NAME: inhibition at 1 µM (%)

// inhibition at 1 µM lookup, key: Cn1c(=O)c2c(CC(=O)Nc3nc(-c4ccc(OCC(C)(C)C)c(Cl)c4)cs3)coc2n(C)c1=O [Example 27]
93.1

Same question, Cn1c(=O)c2c(CC(=O)Nc3nc(-c4cc(Cl)c(OCC(F)(F)F)c(Cl)c4)cs3)coc2n(C)c1=O [Example 47] this time
86

What do we get for Cn1c(=O)c2c(CC(=O)Nc3nc(-c4ccc(OC(F)(F)F)c(F)c4)cs3)coc2n(C)c1=O [Example 17] ?
97.7

Cool, now Cn1c(=O)c2c(CC(=O)Nc3nc(-c4cc(F)c(C(F)(F)F)c(F)c4)cs3)coc2n(C)c1=O [Example 36]
100

And then CC(C)COc1c(F)cc(-c2csc(NC(=O)Cc3coc4c3c(=O)n(C)c(=O)n4C)n2)cc1F [Example 40] , what is it?
99.2

Record: Cc1oc2c(c1CC(=O)Nc1nc(-c3cc(Cl)c(OC(F)F)c(Cl)c3)cs1)c(=O)n(C)c(=O)n2C [Example 86]
99.1

Here is the next compound: Cn1c(=O)c2c(CC(=O)Nc3nc(-c4ccc(C(F)(F)F)c(F)c4)cs3)coc2n(C)c1=O [Example 14]
100
